Please respond with reported pKd for every item in the list.
biological target: T1, mouse C5 (mouse, UniProt P06684 19-674; P06684 679-1680); experiment: SPR single-cycle kinetics, n=1
T1 construct: mature; also called mouse C5 protein
T1 sequence (P06684 19-674 limits assumed, chain 1 of 2): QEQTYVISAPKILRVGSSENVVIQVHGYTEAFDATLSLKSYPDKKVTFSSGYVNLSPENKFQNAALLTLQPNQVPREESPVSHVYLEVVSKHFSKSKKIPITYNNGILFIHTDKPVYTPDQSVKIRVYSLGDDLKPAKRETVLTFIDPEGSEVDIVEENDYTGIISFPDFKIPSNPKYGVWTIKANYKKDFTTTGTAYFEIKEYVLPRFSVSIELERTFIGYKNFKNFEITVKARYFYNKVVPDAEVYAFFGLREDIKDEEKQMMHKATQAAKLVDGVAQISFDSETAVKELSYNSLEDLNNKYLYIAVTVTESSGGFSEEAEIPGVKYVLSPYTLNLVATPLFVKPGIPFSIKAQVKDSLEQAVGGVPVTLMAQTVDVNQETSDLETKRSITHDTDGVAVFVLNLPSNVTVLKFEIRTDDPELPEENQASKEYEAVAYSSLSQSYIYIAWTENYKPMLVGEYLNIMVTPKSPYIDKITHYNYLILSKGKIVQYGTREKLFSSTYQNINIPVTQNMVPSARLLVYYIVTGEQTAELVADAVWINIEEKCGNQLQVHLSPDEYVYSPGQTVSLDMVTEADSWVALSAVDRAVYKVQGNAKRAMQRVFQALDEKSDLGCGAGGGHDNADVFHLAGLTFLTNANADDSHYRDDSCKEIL
T1 sequence (P06684 679-1680 limits assumed, chain 2 of 2): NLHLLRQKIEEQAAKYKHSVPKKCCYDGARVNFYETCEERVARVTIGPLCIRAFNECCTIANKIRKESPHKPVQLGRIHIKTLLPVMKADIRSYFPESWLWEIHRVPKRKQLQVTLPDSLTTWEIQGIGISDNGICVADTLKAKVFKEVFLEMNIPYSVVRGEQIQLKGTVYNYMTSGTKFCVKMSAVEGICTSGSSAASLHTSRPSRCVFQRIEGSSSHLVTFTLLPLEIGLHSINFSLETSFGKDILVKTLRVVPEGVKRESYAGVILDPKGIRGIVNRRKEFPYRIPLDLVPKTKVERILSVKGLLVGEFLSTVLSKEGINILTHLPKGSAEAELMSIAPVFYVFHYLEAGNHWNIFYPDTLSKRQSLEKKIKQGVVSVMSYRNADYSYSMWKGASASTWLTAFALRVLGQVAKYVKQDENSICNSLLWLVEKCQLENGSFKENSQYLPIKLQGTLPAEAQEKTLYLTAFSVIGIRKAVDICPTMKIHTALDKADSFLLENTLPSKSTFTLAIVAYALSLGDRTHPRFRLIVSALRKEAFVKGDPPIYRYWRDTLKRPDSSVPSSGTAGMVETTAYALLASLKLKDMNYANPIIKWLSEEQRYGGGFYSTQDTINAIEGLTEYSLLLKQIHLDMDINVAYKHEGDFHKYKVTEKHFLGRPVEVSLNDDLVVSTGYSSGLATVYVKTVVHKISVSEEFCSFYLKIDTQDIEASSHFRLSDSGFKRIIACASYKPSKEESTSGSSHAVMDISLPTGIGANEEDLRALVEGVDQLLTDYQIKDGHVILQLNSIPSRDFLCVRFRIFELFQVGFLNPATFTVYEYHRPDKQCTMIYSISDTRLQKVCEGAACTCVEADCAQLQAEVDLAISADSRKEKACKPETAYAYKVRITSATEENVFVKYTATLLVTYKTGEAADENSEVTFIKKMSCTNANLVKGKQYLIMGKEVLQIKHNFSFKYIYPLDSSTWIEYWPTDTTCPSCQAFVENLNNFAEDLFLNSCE
As a rule, pKd stands for the negative log10 of the concentration, concentration in M.

Record request: pKd value, item K92 knob domain peptide cleaved from the 645 Fab (Recombinant, cut out by TEV protease) peptide: GSGSVTCPEGWSECGVAIYGYECGRWGCGHFLNSGPNISPYVTTGSENLYFQ
7.20

Record request: pKd value, item K8 knob domain peptide cleaved from the 645 Fab (Recombinant, cut out by TEV protease) peptide: GSVCPDGFNWGYGCAAGSSRFCTRHDWCCYDERADSHTYGFCTGNRVENLYFQ
8.33
